- target: T1, 重组huPCSK9-his (人PCSK9, C端His-tag) (human, UniProt Q8NBP7 54-692)
- T1 construct: Expressed in HEK293 cells; not shown: C-terminal His-tag
- T1 sequence (Q8NBP7 other isoform, or with tags, fused parts or gaps): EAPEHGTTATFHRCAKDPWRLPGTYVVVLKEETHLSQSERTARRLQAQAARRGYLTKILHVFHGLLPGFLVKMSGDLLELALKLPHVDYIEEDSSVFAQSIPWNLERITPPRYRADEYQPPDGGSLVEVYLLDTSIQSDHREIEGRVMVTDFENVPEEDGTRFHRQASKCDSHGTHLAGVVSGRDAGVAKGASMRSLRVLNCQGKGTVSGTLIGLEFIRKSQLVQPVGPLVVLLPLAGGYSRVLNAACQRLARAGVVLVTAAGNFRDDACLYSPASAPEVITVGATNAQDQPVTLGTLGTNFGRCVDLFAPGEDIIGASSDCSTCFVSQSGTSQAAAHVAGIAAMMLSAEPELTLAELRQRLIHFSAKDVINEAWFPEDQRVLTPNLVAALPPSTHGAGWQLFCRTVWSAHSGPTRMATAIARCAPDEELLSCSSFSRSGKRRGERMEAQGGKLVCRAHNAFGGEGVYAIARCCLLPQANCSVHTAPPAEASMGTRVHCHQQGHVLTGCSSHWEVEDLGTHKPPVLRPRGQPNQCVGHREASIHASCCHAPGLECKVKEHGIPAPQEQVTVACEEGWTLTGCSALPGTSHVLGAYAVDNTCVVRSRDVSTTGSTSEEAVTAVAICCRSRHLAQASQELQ
- test description: solid-phase panning of scFv phage library on huPCSK9-his

{"binder": "S2G1 (scFv, also called 克隆S2G1) scFv: QMQLVQSGAEVKKPGSSVKVSCKTSGGTFGSSAIHWVRQAPRQGLEWMGRINPVLGTTNYTQKFHDRLTITADESTTTAYMELRSLRSDDTAVYYCAREGIPMIWGQGTMVTVSSGGGGSGGGGSGGGGSDIQMTQSPSSLSASVGDRVTITCRASQGIHNWLNWYQQKPGKAPKLLIYAASNRASGVPSRFSGSGSGTDFTLTISSLQPEDFATYYCQQSGKQPVTFGQGTKVEIK", "binding result": "binds"}
{"binder": "S3A12 (scFv, also called 克隆S3A12) scFv: QVQLVQSGAEVKKPGASVKVSCKASGYAIYNYGISWVRQAPGQGLEWMGWVSYFGGSTTYAQKLQGRGTMTTDPSTSTAYMELRSLRSDDTAVYYCAKGYGMEIWGQGTTVSSGGGGSGGGGSGGGGSDIQMTQSPSSLSASVGDRVTITCRASQNVNNWLDWYQQKPGKAPKLLIYAASTRASGVPSRFSGSGSGTDFTLTISSLQPEDFATYYCQQDRDVPVTFGQGTKVEIK", "binding result": "binds"}
{"binder": "S2B8 (scFv, also called 克隆S2B8) scFv: QVQLVESGGGLVKPGGSLRLSCAVSGFTFSRHSMNWVRQAPGKGLEWVSSISSGSSNIYYADSVKGRFTISRDNAKNSLYLQMNSLRDEDTAVYYCARGGLGPEYLQHWGQGTLVTVSSGGGGSGGGGSGGGGSSSELTQPASVSGSPGQSITISCTGTSSDIGDNNFVSWYQQYPGKAPKLMIYDVSNRPSGVSNRFSGSKSGNTASLTISGLQAEDEADYYCSSYTSSSTLVFGGGTKVTVLG", "binding result": "binds"}
